test system: Plasmodium falciparum; assay: GSK_TCMDC: Inhibition of Plasmodium falciparum Dd2 in whole red blood cells, using parasite LDH activity as an index of growth. Test compounds present at 2uM; format: functional
Label TRUE for high-side Inhibition (at or above 40%) and FALSE for low-side Inhibition (below it).

> print(dat)
                                    compound           study.system  group.label
 1  Cc1cc(N(C)C)nc(Nc2ccc(NC(=O)COc3ccccc3)cc2)n1  Plasmodium falciparum         TRUE
 2  Cc1ccc(F)c(NC(=O)c2c(-c3c(F)cccc3Cl)noc2C)c1  Plasmodium falciparum        FALSE
 3  COc1ccc(CCNc2nc(SCc3ccccc3Cl)nc3ccccc23)cc1OC  Plasmodium falciparum        FALSE
 4  O=[N+]([O-])c1ccc(Nc2nc(N/N=C/c3ccc(-c4ccc([N+](=O)[O-])cc4)o3)nc(Nc3ccccc3)n2)cc1  Plasmodium falciparum         TRUE
 5  Cc1cccc2nc(-c3ccc(-c4ccc(CNCCNC(=O)c5ccnn5C)cc4)s3)[nH]c12.O=C(O)C(F)(F)F  Plasmodium falciparum         TRUE
 6  CO/C(=C\C=C\c1cc2cc(Cl)c(Cl)cc2[nH]1)C(=O)NC1CCN(CCCc2ccccc2)CC1  Plasmodium falciparum         TRUE
 7  COc1ccc2nccc([C@@H](O)CN3CCC(NC(=O)c4nc(Cl)c(Cl)c(N)c4Cl)CC3)c2c1.CS(=O)(=O)O  Plasmodium falciparum        FALSE
 8  O=C(Nc1cccc(C(F)(F)F)c1)c1cccc(S(=O)(=O)NCC2CCCN(CC3CCCCC3)C2)c1.O=C(O)C(F)(F)F (centres undefined)  Plasmodium falciparum        FALSE
 9  Br.Cc1cc(C)c(CON2C(=N)N=C(N)NC2(C)C)cc1C  Plasmodium falciparum         TRUE
10      CN1CCC(NCc2ccc(-c3ccc(Cl)cc3)cc2)CC1  Plasmodium falciparum         TRUE
11                      Clc1ccccc1OCc1ccccn1  Plasmodium falciparum        FALSE
12  CN1CCC[C@@H](Oc2cc3c(cc2Br)CCN3C(=O)Nc2ccc(-c3ccncc3)c(Cl)c2)C1  Plasmodium falciparum         TRUE
13  Cl.Clc1ccc2c(NCCCCCCCCNc3ccnc4cc(Cl)ccc34)ccnc2c1  Plasmodium falciparum         TRUE
14  CCCCCc1cc(OC(=O)CCCN(CC)CC)c2c(c1)OC(C)(C)C=C2C1=CCN(Cc2ccc3ccccc3c2)CC1  Plasmodium falciparum         TRUE
15  COc1ccc(CCCCN2C(=O)C(c3ccccc3)(c3ccccc3)N=C2N)cc1.O=C(O)C(F)(F)F  Plasmodium falciparum         TRUE
16  NS(=O)(=O)c1ccc(Nc2nccc(-c3c(-c4cccc(NC(=O)c5c(F)cccc5F)c4)nn4ccccc34)n2)cc1  Plasmodium falciparum         TRUE
17    CCN1CCN(CCNc2c3ccccc3nc3ccccc23)CC1.Cl  Plasmodium falciparum        FALSE
18  FC(F)(F)c1ccc2[nH]c(-c3ccc(-c4cccc(CNCc5ccccc5)c4)cc3)nc2c1.O=C(O)C(F)(F)F  Plasmodium falciparum         TRUE
